procedure details: Cynomolgus monkey absorption test (pharmacokinetics)
Type: in vivo, cynomolgus monkeys
recorded conditions: both sexes, cynomolgus monkey, plasma, po, 15 mg/kg, cynomolgus monkeys, oral 15 mg/kg twice a day for 7 days, Day 1
measurement name: AUC(0-t) (µM·h)
Express the result in µM·h but write the number alone.

So for Cc1cc(-c2c(-c3ccccc3)nc(N)n3nc(CO)nc23)cc(C(F)(F)F)n1 , the logged AUC(0-t) turned out to be 172

---

procedure details: 4-week repeated-dose toxicity test in rats
Parameters: species or system SD rats
recorded conditions: female, Sprague-Dawley, rat, in vivo, 60 mg/kg
measurement name: Cmax (µg/mL)
Numbers only; they are read as µg/mL.

Short answer for Cc1cc(-c2c(-c3ccccc3)nc(N)n3nc(CO)nc23)cc(C(F)(F)F)n1 : Cmax was 22.2

Reference source for all entries: patent EP4813990A1
